# System: TK-10 renal
# Experiment Description: NCI tumour cell line growth inhibition, 48 h
Entries annotated with measured log10 TGI
Hello, just confirming the data are log10 of TGI with units of µM.

# example entries with known answers
[
  {
    "Compound": "COc1ccc2c(c1)-c1c(c3cc(OC)ccc3n1CCCN(C)C)CC2",
    "log10 TGI": 1.60
  },
  {
    "Compound": "O=c1c2ccccc2c(/C=N\\NC2=NCCN2)c2oc3ccccc3n12",
    "log10 TGI": 1.50
  },
  {
    "Compound": "COc1cc(/C=C2\\N=C(c3ccccc3)N(c3ccc(C(=O)c4ccccc4)cc3N3C(=O)/C(=C/c4ccc(O)c(OC)c4)N=C3c3ccccc3)C2=O)ccc1O",
    "log10 TGI": 1.72
  },
  {
    "Compound": "CN/C=C(\\C(=O)c1ccc(OC)c(OC)c1)c1ccc(OC)cc1",
    "log10 TGI": 1.58
  },
  {
    "Compound": "COc1ccc(C(=NN=C(N)N)c2ccc(OC)cc2)cc1",
    "log10 TGI": 1.16
  }
]

Consider the compound CCN(CC)CC(C)C(=O)/C=C/c1ccc(C)cc1 (stereo not drawn) . State its measured log10 TGI.
0.57

Consider the compound CCOC(=O)C1=C(C)NC2=C(C(=O)N(c3ccccc3)C2c2ccccc2)C1c1ccccc1 (stereo not drawn) . State its measured log10 TGI.
1.66

Consider the compound CC(C)(C)C1CCC2c3c([nH]c4ccccc34)C3C(=O)N(c4ccccc4Cl)C(=O)C3C2C1 (stereo not drawn) . State its measured log10 TGI.
1.71

Consider the compound "CN(C)CC(=O)Nc1ccc2ncnc(Nc3ccc(Oc4cccc(C(F)(F)F)c4)c(Cl)c3)c2c1" . State its measured log10 TGI.
0.70

Consider the compound "O=Nc1c(-c2c(O)[nH]c3cc(Br)ccc23)[nH]c2ccccc12" . State its measured log10 TGI.
0.71

Consider the compound "Cc1ccc(C=C2C(Cl)=C(Cl)C(Cl)=C2Cl)cc1" . State its measured log10 TGI.
0.41

Consider the compound "COc1cc(CNCCN2C(=O)c3ccc4c5c(ccc(c35)C2=O)C(=O)N(CCNCc2cc(OC)c(OC)c(OC)c2)C4=O)cc(OC)c1OC" . State its measured log10 TGI.
0.18

Consider the compound "C=C1C(=O)O[C@@H]2/C=C(\C)CC/C=C(\C)CC[C@@]12O" . State its measured log10 TGI.
0.53

Consider the compound "CC(=O)c1cc2c(s1)C(=O)c1sccc1C2=O" . State its measured log10 TGI.
-0.38

Consider the compound "COC(=O)c1cc2oc(/C=C3/SC(=S)N(N)C3=O)cc2n1Cc1ccccc1" . State its measured log10 TGI.
1.07

Consider the compound CC(=O)OCC1OC(N2C(c3ccccc3)=CC(c3ccco3)C(C#N)=C2S)C(OC(C)=O)C(OC(C)=O)C1OC(C)=O (stereo not drawn) . State its measured log10 TGI.
1.57

The measurements presented in this section are drawn from PubChem BioAssay (NCI).
